Measured self-cleavage, listed per entry for reference.
B1: Osa-1-4 twister ribozyme (parent)
chain: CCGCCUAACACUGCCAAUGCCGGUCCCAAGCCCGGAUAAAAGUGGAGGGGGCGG

# Variants of: B1
# protocolDescription: self-cleavage, relative activity (ratio to wild type); higher = more cleavage; co-transcriptional
Please give only the number in your answer, with no unit.

alteration	self-cleavage
C11U C31A	0.03
C32A G30A	0.02
C21U G13A	0.11
A17U C33A	0.19
A17U A39C	0.98

Hello, please tell me recorded self-cleavage for this one: C32U G50C
0.09

Hello, please tell me recorded self-cleavage for this one: C27U C52U
0.37

Hello, please tell me recorded self-cleavage for this one: G45C U18A
0.06

Hello, please tell me recorded self-cleavage for this one: C27A G54C
0.11

Hello, please tell me recorded self-cleavage for this one: G34U G49C
0.06

Hello, please tell me recorded self-cleavage for this one: A29U G19U
0.05
